Biological target: MCL-1 (Homo sapiens (Human), UniProt Q07820)
Sequence (Q07820 whole entry): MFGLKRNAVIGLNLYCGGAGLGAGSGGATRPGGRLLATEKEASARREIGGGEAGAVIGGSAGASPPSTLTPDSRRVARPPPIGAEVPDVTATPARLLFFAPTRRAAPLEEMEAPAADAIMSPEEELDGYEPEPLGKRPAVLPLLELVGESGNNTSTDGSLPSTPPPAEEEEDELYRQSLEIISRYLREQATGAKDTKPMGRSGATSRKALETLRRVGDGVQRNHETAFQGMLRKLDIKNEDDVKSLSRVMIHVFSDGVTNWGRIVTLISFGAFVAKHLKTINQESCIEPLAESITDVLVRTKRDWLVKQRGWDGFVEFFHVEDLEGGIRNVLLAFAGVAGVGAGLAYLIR
Assay: Cell free Mcl-1:Bim affinity assay (fluorescence polarization competition)
Assay type: binding
Settings: 15 nM MCL-1, 5 nM FITC-Bim, 1 hour at room temperature; class symbols; read-out: BIM_Ki
recorded metric: Ki

Lab note: measured Ki of CC1(C)OC/C=C/[C@H](OC(=O)NCC2CC2)[C@@H]2CC[C@H]2CN2C[C@@]3(CCCc4cc(Cl)ccc43)COc3ccc(cc32)S(=O)(=O)NC1=O was < 1 nM

Sample CO[C@@H]1/C=C/COCC(=O)NS(=O)(=O)c2ccc3c(c2)N(C[C@@H]2CC[C@H]21)C[C@@]1(CCCc2cc(Cl)ccc21)CO3 ; Ki observed: 1 to 100 nM

# Ki (compound: CC1(C)OC/C=C/[C@@H](O)[C@@H]2CC[C@H]2CN2C[C@@]3(CCCc4cc(Cl)ccc43)COc3ccc(cc32)S(=O)(=O)NC1=O ) is < 1 nM

Recorded Ki (compound CN(C)C(=O)O[C@H]1/C=C/CN(C)C2(CCC2)C(=O)NS(=O)(=O)c2ccc3c(c2)N(C[C@@H]2CC[C@H]21)C[C@@]1(CCCc2cc(Cl)ccc21)CO3 ): < 1 nM

The recorded Ki for CC1(C)OC/C=C/[C@H](OCC(=O)N2CC(F)(F)C2)[C@@H]2CC[C@H]2CN2C[C@@]3(CCCc4cc(Cl)ccc43)COc3ccc(cc32)S(=O)(=O)NC1=O is < 1 nM

The reported value for C[C@H]1NC/C=C/[C@H](OC(=O)N(C)C)[C@@H]2CC[C@H]2CN2C[C@@]3(CCCc4cc(Cl)ccc43)COc3ccc(cc32)S(=O)(=O)NC1=O in terms of Ki is 1 to 100 nM

====

Ki listing for selected molecules.
Molecular target: MCL-1 (Homo sapiens (Human), UniProt Q07820)
Assay: Cell free Mcl-1:Bim affinity assay (fluorescence polarization competition)
Format: binding
Conditions: 15 nM MCL-1, 5 nM FITC-Bim, 1 hour at room temperature; class symbols; read-out: BIM_Ki

Some entries whose results are on file:
CO[C@@H]1/C=C\CN(C)[C@H](C)C(=O)NS(=O)(=O)c2ccc3c(c2)N(C[C@@H]2CC[C@H]21)C[C@@]1(CCCc2cc(Cl)ccc21)CO3 = 1 to 100 nM
CC1(C)OC/C=C/[C@H](OC(=O)NC2COC2)[C@@H]2CC[C@H]2CN2C[C@@]3(CCCc4cc(Cl)ccc43)COc3ccc(cc32)S(=O)(=O)NC1=O = < 1 nM
O=C1N[C@@H]2CCN(C2)C(=O)NS(=O)(=O)c2ccc3c(c2)N(C[C@@H]2CC[C@H]2CO1)C[C@@]1(CCCc2cc(Cl)ccc21)CO3 = 1 to 100 nM
CN(C)C(=O)O[C@H]1/C=C/COC2(CCC2)C(=O)NS(=O)(=O)c2ccc3c(c2)N(C[C@@H]2CC[C@H]21)C[C@@]1(CCCc2cc(Cl)ccc21)CO3 = < 1 nM

Turning now to a further record.
Ki measured on CC(=O)O[C@H]1/C=C/CO[C@@H](C)C(=O)NS(=O)(=O)c2ccc3c(c2)N(C[C@@H]2CC[C@H]21)C[C@@]1(CCCc2cc(Cl)ccc21)CO3 = < 1 nM

====

System: H929 cells
Assay: Cell viability assay (H929 10 FBS)
Assay type: cell-based
Conditions: Homo sapiens, NCI-H929, 24 hours, read-out: H929_10FBS IC50
Recorded IC50 values for a group of molecules are listed next.

CCOC1CN(C(=O)O[C@H]2/C=C/COC(C)(C)C(=O)NS(=O)(=O)c3ccc4c(c3)N(C[C@@H]3CC[C@H]32)C[C@@]2(CCCc3cc(Cl)ccc32)CO4)C1 [Example 57] = < 500 nM
CO[C@@H]1/C=C/CN(C)C2(CCC2)C(=O)NS(=O)(=O)c2ccc3c(c2)N(C[C@@H]2CC[C@H]21)C[C@@]1(CCCc2cc(Cl)ccc21)CO3 [Example 120] = < 1000 nM
CCN(CC)CCO[C@H]1/C=C/COC(C)(C)C(=O)NS(=O)(=O)c2ccc3c(c2)N(C[C@@H]2CC[C@H]21)C[C@@]1(CCCc2cc(Cl)ccc21)CO3 [Example 268] = < 500 nM
CO[C@@H]1CCN(C(=O)O[C@H]2/C=C/COC(C)(C)C(=O)NS(=O)(=O)c3ccc4c(c3)N(C[C@@H]3CC[C@H]32)C[C@@]2(CCOc3cc(Cl)ccc32)CO4)C1 [Example 266] = < 500 nM
CN(C)CCN(C)C(=O)O[C@H]1/C=C/COC(C)(C)C(=O)NS(=O)(=O)c2ccc3c(c2)N(C[C@@H]2CC[C@H]21)C[C@@]1(CCCc2cc(Cl)ccc21)CO3 [Example 55] = < 500 nM
CCOC(=O)N(C)[C@@H]1/C=C/COC(C)(C)C(=O)NS(=O)(=O)c2ccc3c(c2)N(C[C@@H]2CC[C@H]21)C[C@@]1(CCCc2cc(Cl)ccc21)CO3 [Example 252] = > 1000 nM
CC1(C)OC/C=C/[C@H](OC(=O)N2CCN3CCOC[C@H]3C2)[C@@H]2CC[C@H]2CN2C[C@@]3(CCCc4cc(Cl)ccc43)COc3ccc(cc32)S(=O)(=O)NC1=O [Example 171] = < 500 nM
CN1C/C=C/[C@@H](O)[C@@H]2CC[C@H]2CN2C[C@@]3(CCCc4cc(Cl)ccc43)COc3ccc(cc32)S(=O)(=O)NC(=O)C12CCC2 [Example 138] = < 1000 nM
CO[C@@H]1/C=C/C[C@H](C)CC(=O)NS(=O)(=O)c2ccc3c(c2)N(C[C@@H]2CC[C@H]21)C[C@@]1(CCCc2cc(Cl)ccc21)CO3 [Example 71] = > 1000 nM
COC1CN(C(=O)O[C@H]2/C=C/CN(C)C(C)(C)C(=O)NS(=O)(=O)c3ccc4c(c3)N(C[C@@H]3CC[C@H]32)C[C@@]2(CCCc3cc(Cl)ccc32)CO4)C1 [Example 217] = < 500 nM

From here, focus on the item given below.
// recorded IC50 for CN(C(=O)O[C@H]1/C=C/COC(C)(C)C(=O)NS(=O)(=O)c2ccc3c(c2)N(C[C@@H]2CC[C@H]21)C[C@]1(CO3)OCCc2cc(Cl)ccc21)C1CCOCC1 [Example 300] : < 1000 nM

====

System: H929 cells
Assay: Cell viability assay (H929 10 FBS)
Assay type: cell-based
Conditions: Homo sapiens, NCI-H929, 24 hours, read-out: H929_10FBS IC50
Experimental: Cell Viability Assay (H929 10 FBS) Dispense 10 μL aliquot of prepared H929 cells (1:1 ratio of cells:Trypan Blue (#1450013, Bio-Rad)) onto cell counting slide (#145-0011, Bio-Rad) and obtain cell density and cell viability using cell counter (TC20, Bio-Rad). Remove appropriate volume of resuspended cells from culture flask to accommodate 4000 cells/well @ 10 μL/well. […] Read plates with microplate reader (PheraStar, BMG Labtech) using 384 well luminescence mode.
The molecules listed here are annotated with their IC50.

Reference set (5 entries):
Cc1cc(CC(=O)NS(=O)(=O)c2ccc3c(c2)N(CC2CCC2)C[C@@]2(CCCc4cc(Cl)ccc42)CO3)nn1C = > 1000 nM
CCO[C@@H]1CCN(C(=O)O[C@H]2/C=C/COC(C)(C)C(=O)NS(=O)(=O)c3ccc4c(c3)N(C[C@@H]3CC[C@H]32)C[C@@]2(CCOc3cc(Cl)ccc32)CO4)C1 = < 500 nM
O=C(NS(=O)(=O)c1ccc2c(c1)N(CC1CCC1)C[C@@]1(CCCc3cc(Cl)ccc31)CO2)C1CCCC1 = > 1000 nM
CON(C)C(=O)O[C@H]1/C=C/COC(C)(C)C(=O)NS(=O)(=O)c2ccc3c(c2)N(C[C@@H]2CC[C@H]21)C[C@@]1(CCCc2cc(Cl)ccc21)CO3 = < 500 nM
CON(C)C(=O)O[C@H]1/C=C/COC(C)(C)C(=O)NS(=O)(=O)c2ccc3c(c2)N(C[C@@H]2CC[C@H]21)C[C@@]1(CCOc2cc(Cl)ccc21)CO3 = < 500 nM

The molecule listed as CN1C/C=C/[C@H](OCCN2CC(F)(F)C2)[C@@H]2CC[C@H]2CN2C[C@@]3(CCCc4cc(Cl)ccc43)COc3ccc(cc32)S(=O)(=O)NC(=O)C1(C)C shows IC50 equal to < 500 nM

====

Target: MCL-1 (Homo sapiens (Human))
Test: Cell free Mcl-1:Bim affinity assay (fluorescence polarization competition)
Assay type: binding
Conditions: 15 nM MCL-1, 5 nM FITC-Bim, 1 hour at room temperature; class symbols; read-out: BIM_Ki
Each item that follows carries a reported Ki.

CO[C@H]1/C=C/C[C@H](C)[C@@H](C)C(=O)NS(=O)(=O)c2ccc3c(c2)N(C[C@@H]2CC[C@H]21)C[C@@]1(CCCc2cc(Cl)ccc21)CO3 [Example 79] = 1 to 100 nM
CO[C@H]1CCN(C(=O)O[C@H]2/C=C/COC(C)(C)C(=O)NS(=O)(=O)c3ccc4c(c3)N(C[C@@H]3CC[C@H]32)C[C@@]2(CCCc3cc(Cl)ccc32)CO4)C1 [Example 195] = < 1 nM
CN1CC[C@H](NC(=O)O[C@H]2/C=C/COC(C)(C)C(=O)NS(=O)(=O)c3ccc4c(c3)N(C[C@@H]3CC[C@H]32)C[C@@]2(CCCc3cc(Cl)ccc32)CO4)C1 [Example 151] = < 1 nM
CO[C@@H]1/C=C/CNC(=O)NS(=O)(=O)c2ccc3c(c2)N(C[C@@H]2CC[C@H]21)C[C@@]1(CCCc2cc(Cl)ccc21)CO3 [Example 131] = 1 to 100 nM

// CC1(C)OC/C=C/[C@H](OC(=O)N2CCOCC2)[C@@H]2CC[C@H]2CN2C[C@@]3(CCOc4cc(Cl)ccc43)COc3ccc(cc32)S(=O)(=O)NC1=O [Example 248] : Ki value = < 1 nM

Lab note: measured Ki of CCNC(=O)O[C@H]1/C=C/CN(C)C(C)(C)C(=O)NS(=O)(=O)c2ccc3c(c2)N(C[C@@H]2CC[C@H]21)C[C@@]1(CCCc2cc(Cl)ccc21)CO3 [Example 204] was < 1 nM

Per the records, this molecule ( CCO[C@@H]1CCN(C(=O)O[C@H]2/C=C/COC(C)(C)C(=O)NS(=O)(=O)c3ccc4c(c3)N(C[C@@H]3CC[C@H]32)C[C@@]2(CCCc3cc(Cl)ccc32)CO4)C1 [Example 59] ) has Ki equal to < 1 nM

Noted for CNC(=O)O[C@H]1/C=C/COC(C)(C)C(=O)NS(=O)(=O)c2ccc3c(c2)N(C[C@@H]2CC[C@H]21)C[C@@]1(CCCc2cc(Cl)ccc21)CO3 [Example 50] : its Ki reads < 1 nM

Lab note: CNC1CN(C(=O)O[C@H]2/C=C/COC(C)(C)C(=O)NS(=O)(=O)c3ccc4c(c3)N(C[C@@H]3CC[C@H]32)C[C@@]2(CCCc3cc(Cl)ccc32)CO4)C1 [Example 156] gave Ki of < 1 nM

Record [2H]C1([2H])/C=C/[C@H](OC(=O)N(C)C)[C@@H]2CC[C@H]2CN2C[C@@]3(CCCc4cc(Cl)ccc43)COc3ccc(cc32)S(=O)(=O)NC(=O)C(C)(C)O1 [Example 312] , field Ki: < 1 nM

Kindly note the recorded Ki for CN(C)C(=O)O[C@H]1/C=C/COC(C)(C)C(=O)NS(=O)(=O)c2ccc3c(c2)N(C[C@@H]2CC[C@H]21)C[C@]1(CO3)OCCc2cc(Cl)ccc21 [Example 250] , which is < 1 nM
